# experimental_protocol: inhibitors of larval lipid processing in zebrafish, primary screen, whole organism, PED6 fluorescence, gall bladder and intestine (AID 686);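 also: larvae 5 to 7 days old with five fish per well; signal comes from phospholipase A2 cleavage of quenched PED6 carried via bile; overnight exposure to compound and PED6 before scoring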
# conditions_used: Zebrafish larvae PED6 lipid processing, fluorescence scoring; screened at 20 µM (by protocol)
The source made the active and inactive calls.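 The calls were made as follows: active = a full or partial loss of lipid-probe fluorescence in the fish gall bladder, intestine or both, judged by eye; inactive = no fluorescence loss, or compound toxic to the fish.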
endpoint: outcome

Problem: Retrieve outcome measured for CCOC(=O)c1cnc(-n2nc(C)cc2C)nc1N1CC(C)OC(C)C1 (stereo unspecified) and print it.
Result: inactive

Problem: Retrieve outcome measured for COc1ccc(Cl)cc1NC(=O)CSc1nncn1-c1cccnc1 and print it.
Result: inactive

Problem: Retrieve outcome measured for COc1ccc(N2CCN(C(=O)CSc3ccccc3)CC2)cc1 and print it.
Result: inactive

Problem: Retrieve outcome measured for C=CCOc1ccc(CN(C)CC(=O)N(CC(C)C)c2c(N)n(CC(C)C)c(=O)[nH]c2=O)cc1 and print it.
Result: inactive

Problem: Retrieve outcome measured for Cc1ccc(NC(=O)COC(=O)c2ccn(C)n2)cc1 and print it.
Result: inactive

With those in mind, consider the next compound.
Problem: Retrieve outcome measured for COc1ccc(CC(=O)Nc2cc(Cl)ccc2O)cc1 and print it.
Result: inactive

----------
# experimental_protocol: inhibitors of TNFa-induced NFkB p65 translocation, primary screen, imaging, HUVEC, MLSMR starter and 10KST1 sets (AID 438);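 also: compound added about 3h40 before a 20 min TNFalpha stimulation; signal is the nuclear over cytoplasmic p65 intensity ratio per well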
# conditions_used: HUVEC TNFa-induced p65 nuclear translocation; at 2 µM, active compounds read high, 0% TNFa-plus-vehicle, 100% no-TNFa wells
endpoint: inhibition (%)
# number only, unit % dropped from output

Problem: Retrieve inhibition measured for CCCCOc1ccc(-c2ncc(C(=O)OCC)c(N)n2)cc1 and print it.
Result: 1.6

Problem: Retrieve inhibition measured for CCOC(=O)CS(=O)(=O)c1nc(-c2ccccc2)cc(C(F)(F)F)n1 and print it.
Result: 2.8

Problem: Retrieve inhibition measured for Nn1cc(-c2ccccc2)nc1SCC(=O)N1CCN(S(=O)(=O)c2ccccc2)CC1 and print it.
Result: -17.9

Problem: Retrieve inhibition measured for CC(C)c1ccc(C(O)c2cnc(C(C)C)n2C)cc1 (stereo unspecified) and print it.
Result: 6.9

Problem: Retrieve inhibition measured for COc1ccc2cc(CN(Cc3ccco3)C(c3nnnn3C3CCCCC3)C(C)C)c(=O)[nH]c2c1 (stereo unspecified) and print it.
Result: 1.6

With those in mind, consider the next compound.
Problem: Retrieve inhibition measured for O=C(NCC(=O)N(CCc1ccccc1)C(C(=O)NC1CCCC1)c1cccnc1)c1ccco1 (stereo unspecified) and print it.
Result: 6.5

----------
# assay_target: Voltage-gated potassium channel subunit beta-2 (Rattus norvegicus)
# experimental_protocol: inhibitors of rat Kvbeta2 reductase activity – biochemical, NADPH fluorescence, primary screen (AID 622);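 also: slope of raw intensity against log time taken from 70 to 1610 s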
# conditions_used: recombinant KvBeta, 4-cyanobenzaldehyde reduction, at 10 µM, active compounds read high
endpoint: fluorescence slope
Reply with the value as a number alone.

Solved entries (count: 5):
Problem: GET fluorescence slope | system: Voltage-gated potassium channel subunit beta-2 (Rattus norvegicus) | item: COc1cccc(N2CCN(CC(=O)c3c[nH]c4ccc(OC)cc34)CC2C)c1 (stereo not drawn)
Result: -0.368

Problem: GET fluorescence slope | system: Voltage-gated potassium channel subunit beta-2 (Rattus norvegicus) | item: O=C(O)c1cccc(COCC(F)(F)C(F)F)c1
Result: -0.497

Problem: GET fluorescence slope | system: Voltage-gated potassium channel subunit beta-2 (Rattus norvegicus) | item: Cc1cc2ccccc2n1CCNC(=O)c1ccc(S(=O)(=O)N2CCOCC2)cc1
Result: -0.603

Problem: GET fluorescence slope | system: Voltage-gated potassium channel subunit beta-2 (Rattus norvegicus) | item: Cc1cc(C(=O)CSc2nc3ccccc3n2CCC#N)c(C)n1Cc1cccs1
Result: -0.32

Problem: GET fluorescence slope | system: Voltage-gated potassium channel subunit beta-2 (Rattus norvegicus) | item: Cn1c(=O)c2c(nc(CN3CCc4ccccc4C3)n2Cc2cccc(Cl)c2)n(C)c1=O
Result: -0.575

Further cases:
Problem: GET fluorescence slope | system: Voltage-gated potassium channel subunit beta-2 (Rattus norvegicus) | item: COC(=O)c1[nH]c2ccc(C)cc2c1NC(=O)CN1CCCC(C)(C)C1
Result: -0.37

Problem: GET fluorescence slope | system: Voltage-gated potassium channel subunit beta-2 (Rattus norvegicus) | item: CCC(=O)N/C(N)=N/c1nc(C)c2cc(OC)ccc2n1
Result: -0.378

Problem: GET fluorescence slope | system: Voltage-gated potassium channel subunit beta-2 (Rattus norvegicus) | item: CCC(=O)Nc1cc(C(=O)NCC2CCCN2CC)c(OC)cc1N(C)C (stereo not drawn)
Result: -0.525

Problem: GET fluorescence slope | system: Voltage-gated potassium channel subunit beta-2 (Rattus norvegicus) | item: CCOC(=O)CSc1nnc(-c2cccnc2)n1Cc1ccccc1
Result: -0.576

Problem: GET fluorescence slope | system: Voltage-gated potassium channel subunit beta-2 (Rattus norvegicus) | item: COc1ccc(C2C(C(=O)c3sc(C)nc3C)=C(O)C(=O)N2CCN(C)C)cc1 (stereo not drawn)
Result: -0.335

Problem: GET fluorescence slope | system: Voltage-gated potassium channel subunit beta-2 (Rattus norvegicus) | item: CC(C)CN1C(=O)c2ccc(C(=O)Nc3nccs3)cc2C1=O
Result: -0.586

Problem: GET fluorescence slope | system: Voltage-gated potassium channel subunit beta-2 (Rattus norvegicus) | item: COc1cc(CC(=O)Oc2ccc3c(c2)OCO3)cc(OC)c1OC
Result: -0.392

Problem: GET fluorescence slope | system: Voltage-gated potassium channel subunit beta-2 (Rattus norvegicus) | item: CC1CCCN(C(=O)CN2CCN(C(=O)c3ccco3)CC2)C1 (stereo not drawn)
Result: -0.596

Problem: GET fluorescence slope | system: Voltage-gated potassium channel subunit beta-2 (Rattus norvegicus) | item: COc1ccccc1S(=O)(=O)Cc1ccc(C(=O)N2CCN(c3ccccn3)CC2)o1
Result: -0.517

Problem: GET fluorescence slope | system: Voltage-gated potassium channel subunit beta-2 (Rattus norvegicus) | item: NC(=O)c1c(NC(=O)Cc2cccs2)sc2c1CCC2
Result: -0.483

----------
# experimental_protocol: reduction of polyQ htt aggregates in cells – imaging, exon1htt(103Q)mCFP cells, high-content imaging, primary screen (AID 483);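 also: compound exposure lasted 3 days before fixation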
# conditions_used: exon1htt(103Q)mCFP cell line, aggregate imaging, at 2 µM; active compounds read high
endpoint: inhibition of aggregation (%)
# number only, unit % dropped from output

Solved entries (count: 3):
Problem: Retrieve inhibition of aggregation measured for CCOC(=O)c1ccc(CNC(=O)C(Cc2c[nH]c3ccccc23)NC(C)=O)o1 (stereo unspecified) and print it.
Result: -11.1

Problem: Retrieve inhibition of aggregation measured for C=CCn1c(Cc2csc(N)n2)nnc1SCC(=O)OCC and print it.
Result: 18.2

Problem: Retrieve inhibition of aggregation measured for COc1ccc(Cc2nc(-c3ccc(Br)cc3)no2)cc1 and print it.
Result: -7

Further cases:
Problem: Retrieve inhibition of aggregation measured for CN(C(=O)C1CCOC1)c1nnc(-c2cccnc2)s1 (stereo unspecified) and print it.
Result: 15.3

Problem: Retrieve inhibition of aggregation measured for COc1ccc(CCNC(=O)C2CCCN(c3nn4c(=O)cc(C)nc4s3)C2)cc1OC (stereo unspecified) and print it.
Result: 10.8

Problem: Retrieve inhibition of aggregation measured for Cc1nc2ncnn2c(N2CCC(C(=O)NCC3CCCO3)CC2)c1Cc1ccccc1 (stereo unspecified) and print it.
Result: -26.5

Problem: Retrieve inhibition of aggregation measured for Cc1ccc(CNC(=O)c2coc(=O)c3ccccc23)o1 and print it.
Result: 4.6

Problem: Retrieve inhibition of aggregation measured for Cc1csc(OCc2ccc(C#N)cc2)n1 and print it.
Result: -1.8

Problem: Retrieve inhibition of aggregation measured for O=C(NC1CCS(=O)(=O)C1)OC1CCCCC1 (stereo unspecified) and print it.
Result: 2

Problem: Retrieve inhibition of aggregation measured for O=C(CC(Cc1ccccc1)C(=O)O)NCCc1ccc2c(c1)OCO2 (stereo unspecified) and print it.
Result: -0.6

Problem: Retrieve inhibition of aggregation measured for COc1ccc(Cl)c(NC(=O)NCCN2CCN(c3ccccc3)CC2)c1 and print it.
Result: 1

----------
# assay_target: Alpha-2C adrenergic receptor (Homo sapiens) (UniProt P18825)
# Sequence (P18825 whole entry, looked up): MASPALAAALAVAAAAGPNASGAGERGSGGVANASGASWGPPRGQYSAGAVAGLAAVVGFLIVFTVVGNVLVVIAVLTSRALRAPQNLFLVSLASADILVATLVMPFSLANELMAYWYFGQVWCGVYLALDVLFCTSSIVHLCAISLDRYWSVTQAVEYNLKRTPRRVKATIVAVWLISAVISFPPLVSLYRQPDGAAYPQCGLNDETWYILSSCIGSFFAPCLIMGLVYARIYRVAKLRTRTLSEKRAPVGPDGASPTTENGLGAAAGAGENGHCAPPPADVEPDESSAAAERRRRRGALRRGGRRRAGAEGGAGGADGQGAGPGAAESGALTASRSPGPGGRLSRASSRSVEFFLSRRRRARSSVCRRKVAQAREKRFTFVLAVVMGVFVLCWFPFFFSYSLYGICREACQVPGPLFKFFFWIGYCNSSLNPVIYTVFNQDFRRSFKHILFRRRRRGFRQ
# experimental_protocol: compounds altering alpha2C-coupled GIRK flux – cell-based, HEK293 alpha2C/GIRK1/2, thallium flux, primary screen (AID 624);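 also: slope of fluorescence ratio to pre-addition baseline per second over 15 to 24 s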
# conditions_used: thallium flux BTC fluorescence, at 10 µM, actives lie on both sides
# label = t if slope < 0.005 else f

Below are worked cases with known answers.
Problem: Item Cc1ccc(S(=O)(=O)NCC(=O)OCC(=O)Nc2ncc(Cl)cc2Cl)cc1 : slope beneath 0.005, strictly?
Result: t

Problem: Item O=C(O)c1ccc2noc(-c3ccccc3)c2c1 : slope beneath 0.005, strictly?
Result: t

Problem: Item CCOC(=O)N1CCN(Cc2nc3c(c(=O)n(C)c(=O)n3C)n2Cc2ccc(F)cc2)CC1 : slope beneath 0.005, strictly?
Result: f

Problem: Item COc1ccccc1OCCNC(=O)c1cccs1 : slope beneath 0.005, strictly?
Result: f

Further cases:
Problem: Item CC(CN1CCCCC1)OC(=O)c1ccc2c(c1)OCO2 (stereo unspecified) : slope beneath 0.005, strictly?
Result: t

Problem: Item CSc1ccccc1NC(=O)CN(c1ccccc1)S(=O)(=O)N(C)C : slope beneath 0.005, strictly?
Result: f

Problem: Item Cc1ccc(Nc2cc(-n3nc(C)cc3C)ncn2)cc1 : slope beneath 0.005, strictly?
Result: f

Problem: Item COc1cccc(CN2C(=O)C3(C(C#N)=C(N)OC4=C3C(=O)CCC4)c3ccccc32)c1 (stereo unspecified) : slope beneath 0.005, strictly?
Result: f

Problem: Item COc1ccccc1NC(=O)N(Cc1ccco1)Cc1cc2cccc(C)c2[nH]c1=O : slope beneath 0.005, strictly?
Result: t

Source of measurements: PubChem BioAssay
